Data provenance is the supplement of paper PMC13207355.

Below, each entry is listed alongside its reported surviving fraction.
Tested on: E57 (patient-derived glioblastoma stem cells of mesenchymal subtype);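 also: nuclei counted by high-content imaging of Hoechst-stained cells in laminin-coated 384-well plates, relative to 0.1% DMSO vehicle wells, with staurosporine as cell-death control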
Test: surviving fraction (nuclei count normalised to DMSO); higher = more cells surviving (less toxic)
Conditions: 333.3 nM; exposure time: 72 h
Structures can show the parent of a compound that is named as a salt.

Below, each entry is followed by its recorded surviving fraction result.
| molecule | surviving fraction |
| --- | --- |
| CC(C)N1CCN(c2ccc(OCC3COC(Cn4cncn4)(c4ccc(Cl)cc4Cl)O3)cc2)CC1 (stereo unspecified) | 0.978 |
| N=C(N)NCc1cccc(I)c1 [Iobenguane sulfate] | 0.992 |
| O=C1CC[C@@H](C(=O)N2CSC[C@H]2C(=O)O)N1 | 0.978 |
| CC(C)C[C@H]1C(=O)N2CCC[C@H]2[C@]2(O)O[C@](NC(=O)[C@@H]3C=C4c5cccc6[nH]c(Br)c(c56)C[C@H]4N(C)C3)(C(C)C)C(=O)N12 [Bromocryptine mesylate] | 1.01 |
| COc1ccc(/C=C\c2cc(OC)c(OC)c(OC)c2)cc1OP(=O)(O)O [Fosbretabulin Disodium] | 0.604 |
| Cc1ncc(CO)c(CO)c1O [Pyridoxine hydrochloride] | 1.07 |

Observed surviving fraction, E57, Cc1cc(/C=C/c2ccc3cc(N(C)C)ccc3[n+]2C)c(C)n1-c1ccccc1 [Pyrvinium pamoate] : 0.272

Observed surviving fraction, E57, COc1ccc(C(=O)CC(=O)c2ccc(C(C)(C)C)cc2)cc1 : 1.12

Observed surviving fraction, E57, O=C(Oc1cccc2cccnc12)c1ccccc1 : 0.999

Observed surviving fraction, E57, Cn1nnc2c(C(N)=O)ncn2c1=O [Temozolomide] : 0.951

Observed surviving fraction, E57, CCOC(=O)C1=C(C)NC(C)=C(C(=O)OCC)C1c1c(F)c(F)c(F)c(F)c1F : 1.03

Observed surviving fraction, E57, Clc1ccc(C(Cn2ccnc2)OCc2ccsc2Cl)c(Cl)c1 (stereo unspecified) : 0.973

Observed surviving fraction, E57, COc1cccc2c1C(=O)c1c(O)c3c(c(O)c1C2=O)C[C@@](O)(C(C)=O)C[C@@H]3O[C@H]1C[C@H](N)[C@H](O)[C@H](C)O1 [Daunorubicin hydrochloride] : 0.149

Observed surviving fraction, E57, CC(=O)O[C@H]1C[C@H](O[C@H]2[C@@H](O)C[C@H](O[C@H]3[C@@H](O)C[C@H](O[C@H]4CC[C@@]5(C)[C@H](CC[C@@H]6[C@@H]5C[C@@H](O)[C@]5(C)[C@@H](C7=CC(=O)OC7)CC[C@]65O)C4)O[C@@H]3C)O[C@@H]2C)O[C@H](C)[C@H]1O[C@@H]1O[C@H](CO)[C@@H](O)[C@H](O)[C@H]1O [Lanatoside C] : 0.217

Observed surviving fraction, E57, CCOC(=O)OC(C)OC1=C(C(=O)Nc2ccccn2)N(C)S(=O)(=O)c2ccccc21 (stereo unspecified) : 0.943

Observed surviving fraction, E57, CC(C)(C)C1CCN(C(=O)n2ncc(C(O)(c3ccccc3)c3ccccc3)n2)CC1 : 0.964
